Recorded logP for the following molecules
Answer with a number only.

Illustrative cases are given below, each with its answer.
>>> print(df.to_string())
                              smiles_record  reported_property  reported
0         Clc1cc(Cl)c2oc3c(Cl)cc(Cl)cc3c2c1               logP      6.17
1  Clc1cc(Cl)c2c(c1)Oc1cc(Cl)c(Cl)c(Cl)c1O2               logP       6.4
2        Clc1cc2c(cc1Cl)Oc1cc(Cl)c(Cl)cc1O2               logP      6.42

Okay, now this molecule:
INPUT: Please report the recorded logP for "Clc1ccc2c(c1)Oc1c(Cl)c(Cl)cc(Cl)c1O2" .
OUTPUT: 6.25

====

- Test: method code SF-GLC, from DOI: 10.1016/0045-6535(89)90321-4
Reported Property: logP
The response must contain the number and no unit.

Answered cases to consult:
>>> df
                           smiles_record  reported
0  Clc1cc2c(oc3ccc(Cl)c(Cl)c32)c(Cl)c1Cl      6.42
1      Clc1c(Cl)c(Cl)c2c(oc3ccccc32)c1Cl      6.17
2  Clc1cc2c(oc3c(Cl)c(Cl)ccc32)c(Cl)c1Cl      6.47

Moving on to the next compound.
INPUT: I'd like to know its logP. The compound in question is "Clc1cc(Cl)c2c(c1)Oc1c(Cl)cc(Cl)cc1O2"
OUTPUT: 6.29

====

- Test: method code SF-GLC, from DOI: 10.1016/0045-6535(89)90321-4
Reported Property: logP
Give the figure only, with no unit attached.

>>> df
                             smiles_record  reported_property  reported
0  Clc1cc(Cl)c2c(c1)oc1c(Cl)cc(Cl)c(Cl)c12               logP      6.19
1       Clc1cc(Cl)c2c(c1Cl)Oc1cccc(Cl)c1O2               logP       6.1
2        Clc1ccc(Cl)c2c1oc1c(Cl)ccc(Cl)c12               logP       5.6
3          Clc1cc2oc3c(Cl)c(Cl)ccc3c2cc1Cl               logP      6.31
4    Clc1cc(Cl)c2oc3c(Cl)c(Cl)cc(Cl)c3c2c1               logP      6.24

INPUT: Report logP for "Clc1cc2oc3c(Cl)c(Cl)ccc3c2c(Cl)c1Cl" please.
OUTPUT: 6.26

INPUT: Then what about the compound "Clc1cc2oc3c(Cl)cc(Cl)c(Cl)c3c2cc1Cl" ?
OUTPUT: 6.26

INPUT: Same read-out for "Clc1cc(Cl)c2c(c1)Oc1c(ccc(Cl)c1Cl)O2" ?
OUTPUT: 6.43

INPUT: "Clc1cc2oc3cccc(Cl)c3c2c(Cl)c1Cl" , same question.
OUTPUT: 6.06

INPUT: Check "Clc1cc(Cl)c2c(c1)Oc1cc(Cl)cc(Cl)c1O2" too.
OUTPUT: 6.39

INPUT: Query "Clc1cc2c(c(Cl)c1Cl)Oc1c(Cl)c(Cl)cc(Cl)c1O2" next
OUTPUT: 7.59

INPUT: Note, next up: "Clc1ccc2oc3c(Cl)c(Cl)cc(Cl)c3c2c1"
OUTPUT: 6.13

====

- Test: method code SF-GLC, from DOI: 10.1016/0045-6535(89)90321-4
Reported Property: logP
Respond with the number and no other words.

Solved entries (count: 4):
>>> print(df.to_string())
                            smiles_record  reported
0     Clc1cc(Cl)c2c(c1)oc1cc(Cl)cc(Cl)c12      6.34
1      Clc1ccc(Cl)c2c1Oc1c(Cl)ccc(Cl)c1O2      6.38
2  Clc1cc(Cl)c2c(c1Cl)Oc1c(Cl)ccc(Cl)c1O2       6.6
3   Clc1cc(Cl)c2oc3c(Cl)cc(Cl)c(Cl)c3c2c1      6.34

INPUT: Could you tell me which logP is on file for "Clc1cc2c(cc1Cl)Oc1c(Cl)c(Cl)cc(Cl)c1O2" ?
OUTPUT: 6.2

INPUT: Now try "Clc1ccc2c(c1)oc1c(Cl)c(Cl)c(Cl)c(Cl)c12" .
OUTPUT: 6.53

INPUT: Same question, "Clc1ccc2oc3c(Cl)c(Cl)c(Cl)c(Cl)c3c2c1" this time
OUTPUT: 6.79

INPUT: Another compound to check: "Clc1ccc2c(c1)Oc1cc(Cl)c(Cl)c(Cl)c1O2"
OUTPUT: 6.1

INPUT: Can you handle "Clc1cc2c(c(Cl)c1Cl)Oc1c(Cl)ccc(Cl)c1O2" next?
OUTPUT: 6.24

INPUT: What do you get for "Clc1ccc2c(oc3c(Cl)cc(Cl)c(Cl)c32)c1Cl" ?
OUTPUT: 6.27

INPUT: Then "Clc1cc(Cl)c2c(c1)Oc1cc(Cl)c(Cl)cc1O2" ?
OUTPUT: 6.3

INPUT: What about this compound? "Clc1cc2oc3ccc(Cl)c(Cl)c3c2cc1Cl"
OUTPUT: 6.23

INPUT: Further, for "Clc1cc(Cl)c2c(c1)oc1c(Cl)c(Cl)cc(Cl)c12" ?
OUTPUT: 6.33

====

Recorded logP, one value per entry.
- Test: method code SF-GLC, from DOI: 10.1016/0045-6535(89)90321-4

Examples from the recorded data:
In [3]: df
Out[3]:
                           smiles_record  reported
0      Clc1ccc2oc3c(Cl)cc(Cl)c(Cl)c3c2c1      6.31
1  Clc1cc2c(oc3c(Cl)ccc(Cl)c32)c(Cl)c1Cl      6.53

INPUT: Give the measured logP of "Clc1cc2c(oc3c(Cl)c(Cl)c(Cl)c(Cl)c32)c(Cl)c1Cl" .
OUTPUT: 7.92

INPUT: Repeat for the following compound: "Clc1cc(Cl)c2oc3c(Cl)c(Cl)ccc3c2c1"
OUTPUT: 6.25

INPUT: Another compound to look at: "Clc1ccc2c(c1)oc1c(Cl)c(Cl)c(Cl)cc12"
OUTPUT: 6.06

INPUT: Same thing, different compound: "Clc1cc(Cl)c2c(c1)Oc1ccc(Cl)c(Cl)c1O2"
OUTPUT: 6.86

INPUT: Try the compound "Clc1cc(Cl)c2c(c1Cl)Oc1c(Cl)cc(Cl)c(Cl)c1O2"
OUTPUT: 6.85

INPUT: // repeat for "Clc1ccc2c(oc3ccc(Cl)c(Cl)c32)c1Cl" and report
OUTPUT: 6.25

====

- Test: method code SF-GLC, from DOI: 10.1016/0045-6535(89)90321-4
Recorded logP for the following compounds

                              smiles_record  reported
0        Clc1cc(Cl)c2c(c1Cl)Oc1c(Cl)cccc1O2       6.1
1  Clc1cc(Cl)c2c(c1)Oc1c(Cl)c(Cl)c(Cl)c(Cl)c1O2      6.85
2         Clc1cc2c(oc3c(Cl)cccc32)c(Cl)c1Cl      6.11
3         Clc1cc(Cl)c2c(oc3c(Cl)cccc32)c1Cl      6.31
4  Clc1cc2c(c(Cl)c1Cl)Oc1c(Cl)cc(Cl)c(Cl)c1O2      7.59

INPUT: So what does the record say about logP for "Clc1cc(Cl)c2oc3cc(Cl)c(Cl)c(Cl)c3c2c1" ?
OUTPUT: 6.33

INPUT: For "Clc1cc2c(c(Cl)c1Cl)Oc1c(Cl)cccc1O2" then?
OUTPUT: 6.39

INPUT: Another compound to look at: "Clc1cc(Cl)c2c(oc3c(Cl)ccc(Cl)c32)c1Cl"
OUTPUT: 6.34

INPUT: Entry to check: "Clc1cc2oc3c(Cl)cccc3c2c(Cl)c1Cl"
OUTPUT: 6.15

INPUT: Next up: "Clc1cc2c(c(Cl)c1Cl)Oc1ccc(Cl)c(Cl)c1O2"
OUTPUT: 6.74

INPUT: How about "Clc1ccc2c(c1)Oc1c(cc(Cl)c(Cl)c1Cl)O2" ?
OUTPUT: 6.1

INPUT: Also "Clc1ccc2c(oc3c(Cl)ccc(Cl)c32)c1Cl" ?
OUTPUT: 6.15

INPUT: Then what about the compound "Clc1cc(Cl)c2c(c1)Oc1c(cc(Cl)c(Cl)c1Cl)O2" ?
OUTPUT: 6.53

INPUT: Same lookup for "Clc1cc2c(cc1Cl)Oc1c(cc(Cl)c(Cl)c1Cl)O2" , please.
OUTPUT: 6.64

INPUT: Would you mind doing "Clc1cc(Cl)c2oc3cc(Cl)c(Cl)cc3c2c1" as well?
OUTPUT: 6.73

INPUT: Now this one: "Clc1ccc2c(oc3c(Cl)c(Cl)cc(Cl)c32)c1Cl"
OUTPUT: 6.19

INPUT: Next compound up: "Clc1cc(Cl)c2oc3c(Cl)c(Cl)c(Cl)cc3c2c1"
OUTPUT: 6.59

INPUT: Also "Clc1ccc2c(c1)oc1c(Cl)c(Cl)cc(Cl)c12" , if possible.
OUTPUT: 6.23

INPUT: # iterate: "Clc1cc2c(cc1Cl)Oc1c(Cl)ccc(Cl)c1O2"
OUTPUT: 6.39

INPUT: Lookup "Clc1cc2c(oc3cccc(Cl)c32)c(Cl)c1Cl"
OUTPUT: 6.17

INPUT: Next record, please: "Clc1cc(Cl)c2c(c1)oc1c(Cl)cc(Cl)cc12"
OUTPUT: 6.37
